IC50 reference
# MEASURED_ON: Phospholipase A2 (Homo sapiens)
# Sequence (P04054 whole entry): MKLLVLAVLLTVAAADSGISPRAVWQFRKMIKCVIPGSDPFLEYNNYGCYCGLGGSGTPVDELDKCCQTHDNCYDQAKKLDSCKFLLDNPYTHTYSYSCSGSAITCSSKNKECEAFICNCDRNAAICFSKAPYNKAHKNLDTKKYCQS
# Format: functional
Calls of active or inactive are those of the source.
PARAMETER_MEASURED: IC50

> print(dat)
                                   molecule  parameter.measured   measured.result
1  COc1ccc(-c2[nH]nc3c2C(c2ccc(OC(=O)N4CCOCC4)cc2)C(C#N)=C(N)O3)cc1 (stereo not given)                IC50  13.4 µM (active)
2         O=C(c1ccccc1)c1cnc(Nc2ccccc2Cl)s1                IC50  7.65 µM (active)
3       Cc1c(C)c(C)c(CO/N=C/c2cccs2)c(C)c1C                IC50  7.99 µM (active)
4  CCCCn1c(SCC(=O)Nc2cc(C)n[nH]2)nc2ccsc2c1=O                IC50  9.31 µM (active)
5  Cc1ccccc1NC1=NC(=O)/C(=C/c2cccn2-c2cccc(C(=O)O)c2)S1                IC50   8.6 µM (active)

---

# MEASURED_ON: UniProt P10635
# Sequence (P10635 whole entry): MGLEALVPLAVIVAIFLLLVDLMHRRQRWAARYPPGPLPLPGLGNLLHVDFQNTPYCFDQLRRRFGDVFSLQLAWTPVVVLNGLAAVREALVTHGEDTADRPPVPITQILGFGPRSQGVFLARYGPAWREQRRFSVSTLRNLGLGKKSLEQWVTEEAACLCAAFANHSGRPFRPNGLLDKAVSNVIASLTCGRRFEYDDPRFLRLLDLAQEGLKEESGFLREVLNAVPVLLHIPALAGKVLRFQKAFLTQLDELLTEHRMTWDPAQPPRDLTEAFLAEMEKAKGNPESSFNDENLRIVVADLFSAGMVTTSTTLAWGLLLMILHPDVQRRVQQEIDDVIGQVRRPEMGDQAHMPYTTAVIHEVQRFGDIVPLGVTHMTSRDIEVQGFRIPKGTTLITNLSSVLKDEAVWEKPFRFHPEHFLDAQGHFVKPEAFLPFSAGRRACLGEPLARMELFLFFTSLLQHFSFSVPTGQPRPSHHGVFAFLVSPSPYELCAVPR
PARAMETER_MEASURED: AC50

> print(dat)
                                    compound     measured.on          measured.result
 1  C[N+]12CCC(CC1)[C@@H](OC(=O)C(O)(c1ccccc1)c1ccccc1)C2  UniProt P10635   12.6 µM (inconclusive)
 2  O=C(c1ccccc1)c1ccc2[nH]c(-c3ccc(NC(=O)c4ccccc4Br)cc3)nc2c1  UniProt P10635   14.1 µM (inconclusive)
 3  COc1cccc(-c2ccc3ncnc(NCc4cnc(C)cn4)c3c2)c1  UniProt P10635   31.6 µM (inconclusive)
 4              CC1(C)N=C(N)N=C(Nc2ccccc2)N1  UniProt P10635   39.8 µM (inconclusive)
 5    COc1cccc(C(=O)NNC2=CC(=O)CC(C)(C)C2)c1  UniProt P10635   12.6 µM (inconclusive)
 6  Cc1nn(-c2ccccc2)c2c1C(=O)N(Cc1ccccc1)C(=O)C(C)(C)C2  UniProt P10635  0.891 µM (inconclusive)
 7  Cc1ccc(Cc2c(C)nc3nc(SCC(=O)NCc4ccco4)nn3c2C)cc1  UniProt P10635   25.1 µM (inconclusive)
 8     Cc1cc(N2CCOCC2)nc(SCc2ccc(Cl)cc2Cl)n1  UniProt P10635   15.8 µM (inconclusive)
 9  CN(C)c1cc2c(Nc3ccc4c(cnn4Cc4ccccc4)c3)ncnc2cn1 [GW282974X]  UniProt P10635   31.6 µM (inconclusive)
10     O=C(COc1ccc(Cl)cc1Cl)N/N=C/CCc1ccccc1  UniProt P10635   3.16 µM (inconclusive)
11  O=C(NC(=S)N(CCCCO)C1CCCCC1)c1sc2ccccc2c1Cl  UniProt P10635   22.4 µM (inconclusive)
12  CCC(C(=O)NC(C)(C)C)N(C(=O)Cn1nnc(-c2cccs2)n1)c1cnc2ccccc2c1 (stereo unspecified)  UniProt P10635   28.2 µM (inconclusive)
13  CC(=O)Nc1cccc(C(=O)OC(C(=O)c2ccc(C)c(C)c2)c2ccccc2)c1 (stereo unspecified)  UniProt P10635   17.8 µM (inconclusive)
14  COc1ccc(C(C(=O)NC2CCCCC2)N2CCC3(CC2)OCCO3)cc1 (stereo unspecified)  UniProt P10635  0.316 µM (inconclusive)
15  Cc1ccccc1NS(=O)(=O)c1ccc2ncc(C(=O)N(C)Cc3ccco3)c(O)c2c1  UniProt P10635   17.8 µM (inconclusive)
16  Cc1c(C(=O)Nc2nccs2)sc2nc(-c3cccs3)cc(C(F)(F)F)c12  UniProt P10635   3.98 µM (inconclusive)
17  Oc1c(C(O)(c2ccccc2)c2ccc3ccccc3c2O)ccc2ccccc12  UniProt P10635   3.98 µM (inconclusive)
18  C=CC[C@@H]1C=C[C@H](O/N=C2\c3cc(OC)ccc3O[C@H](c3cccc(OC)c3)[C@H]2O)[C@H](CO)O1  UniProt P10635   5.01 µM (inconclusive)
19            Cc1cccc(NC(=S)c2nc3ccccc3s2)c1  UniProt P10635   35.5 µM (inconclusive)
20  O=C(Cc1ccccc1)NC(NC(=S)Nc1cc(Cl)ccc1Cl)C(Cl)(Cl)Cl (stereo unspecified)  UniProt P10635   3.16 µM (inconclusive)
21           Cc1noc(C)c1-c1cncnc1N1CCN(C)CC1  UniProt P10635   39.8 µM (inconclusive)

---

Below is a list of entries, each paired with its recorded EC50 value.
# MEASURED_ON: Zinc finger protein mex-5 (Caenorhabditis elegans)
# Sequence (Q9XUB2 whole entry): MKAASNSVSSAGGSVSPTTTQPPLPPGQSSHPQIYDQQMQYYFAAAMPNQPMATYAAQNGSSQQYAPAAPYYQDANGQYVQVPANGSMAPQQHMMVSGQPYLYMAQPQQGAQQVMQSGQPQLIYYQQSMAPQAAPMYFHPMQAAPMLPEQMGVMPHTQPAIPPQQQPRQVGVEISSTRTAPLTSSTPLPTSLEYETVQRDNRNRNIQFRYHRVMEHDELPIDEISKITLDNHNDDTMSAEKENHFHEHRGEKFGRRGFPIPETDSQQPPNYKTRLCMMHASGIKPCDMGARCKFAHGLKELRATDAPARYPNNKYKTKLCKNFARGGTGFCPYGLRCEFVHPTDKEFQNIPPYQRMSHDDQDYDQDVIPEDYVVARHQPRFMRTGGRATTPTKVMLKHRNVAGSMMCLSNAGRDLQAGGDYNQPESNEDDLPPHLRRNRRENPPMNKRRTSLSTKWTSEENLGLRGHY
# METHOD_DESCRIPTION: potency of MEX-5 RNA-binding blockers – biochemical, C. elegans, fluorescence polarization, dose response (AID 1960)
Active and inactive are the calls of the source.
PARAMETER_MEASURED: EC50

> print(dat)
                                    compound  parameter.measured        measured.result
 1  CC1=C(C#N)C(=O)N(C)C(=O)/C1=C\NNc1ccc(C)c(C)c1                EC50       40.6 µM (active)
 2  COc1cc(C2C(C#N)=C(N)OC3=C2C(=O)CC(C)(C)C3)cc2c1OCO2 (stereo not given)                EC50  > 300 µM (not active)
 3  Cc1sc(-n2c(C)cc(C=C3C(=O)NC(=O)NC3=O)c2C)c(C#N)c1C                EC50  > 300 µM (not active)
 4   N#Cc1c(N)nc(SCc2ccccc2)c(C#N)c1-c1ccco1                EC50  > 300 µM (not active)
 5  N#C/C(=C\N1CCN(Cc2ccc3c(c2)OCO3)CC1)c1nc2ccccc2s1                EC50  > 300 µM (not active)
 6  CC(C)CNC(=O)C1Nc2ccccc2C2C=CCC12 (stereo not given)                EC50  > 300 µM (not active)
 7     CC(=O)N/C=C1\C(=O)N(C)C(=O)C(C#N)=C1C                EC50       34.9 µM (active)
 8    O=C(NC(=S)NNS(=O)(=O)c1ccccc1)c1cccnc1                EC50  > 300 µM (not active)
 9      Oc1ccc(N=Nc2ccccc2-c2nn[nH]n2)c(O)c1                EC50  > 300 µM (not active)
10    COc1ccc(-n2nc3c(=O)[nH][nH]c3cc2=O)cc1                EC50       3.67 µM (active)

---

# MEASURED_ON: Heat shock factor protein 1 (Mus musculus)
# Sequence (P38532 whole entry): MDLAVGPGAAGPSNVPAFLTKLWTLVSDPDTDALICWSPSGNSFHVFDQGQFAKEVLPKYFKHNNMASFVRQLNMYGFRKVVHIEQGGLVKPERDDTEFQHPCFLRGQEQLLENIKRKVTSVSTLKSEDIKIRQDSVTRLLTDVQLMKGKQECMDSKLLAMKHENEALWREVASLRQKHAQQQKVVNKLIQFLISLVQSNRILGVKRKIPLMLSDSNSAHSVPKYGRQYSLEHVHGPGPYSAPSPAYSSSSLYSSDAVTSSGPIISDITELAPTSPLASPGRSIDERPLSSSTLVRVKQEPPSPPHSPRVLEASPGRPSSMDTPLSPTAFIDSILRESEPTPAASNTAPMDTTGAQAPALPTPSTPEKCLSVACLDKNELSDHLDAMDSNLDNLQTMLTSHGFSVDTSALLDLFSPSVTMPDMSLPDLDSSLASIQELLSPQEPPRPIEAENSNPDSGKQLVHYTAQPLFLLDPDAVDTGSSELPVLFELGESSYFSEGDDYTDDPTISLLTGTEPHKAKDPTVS
# METHOD_DESCRIPTION: enhancement of HSF1-driven luciferase signal – cell-based, NIH3T3, luminescence, dose retest, confirmation (AID 435004);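 note: stress induced by proteasome inhibitor MG132 added 30 min after compound; luciferase reporter driven by HSF1 response element in NIH3T3 cells; actives raise luminescence as potentiators of the MG132 stress response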
# Assay type: functional
Activity calls are given as the source filed them.
Outcomes: active, inactive

> print(dat)
                                   compound  label.value
1  COc1ccc(C2(c3ccc(OC)cc3)NC(=O)N(CC(=O)N(C)c3ccccc3)C2=O)cc1     inactive
2  CCCN(CC(=O)Nc1ccc(Cl)cc1Cl)C(=O)/C=C/c1ccco1       active
3  Cc1cc(-c2nnc(CCC(=O)N(C)Cc3cccc4ccccc34)o2)no1     inactive
4  CN1C(=O)C2(c3ccccc31)N(C)CC(c1ccccn1)C21SC(=S)N(Cc2ccco2)C1=O (centres undefined)     inactive
